test_protocol: AUC (0 to t) in Sprague-Dawley rat at 1 mg/kg,iv
Type: ADME, organism-based
Parameters: dose 1 mg/kg, route iv
condition_summary: in vivo
parameter_measured: AUC(0-t) (ng·h/mL)
Value expressed in ng·h/mL; do not type the unit.

# get_value(readout='AUC(0-t)', item= `Cc1cccc(-c2cc(C#N)cc(Oc3c(C(F)(F)F)ccn(Cc4n[nH]c(=O)n4C)c3=O)c2)c1` )
892

* * *

tested_on: Voltage-gated inwardly rectifying potassium channel KCNH2 (Homo sapiens, UniProt Q12809)
Sequence (Q12809 whole entry): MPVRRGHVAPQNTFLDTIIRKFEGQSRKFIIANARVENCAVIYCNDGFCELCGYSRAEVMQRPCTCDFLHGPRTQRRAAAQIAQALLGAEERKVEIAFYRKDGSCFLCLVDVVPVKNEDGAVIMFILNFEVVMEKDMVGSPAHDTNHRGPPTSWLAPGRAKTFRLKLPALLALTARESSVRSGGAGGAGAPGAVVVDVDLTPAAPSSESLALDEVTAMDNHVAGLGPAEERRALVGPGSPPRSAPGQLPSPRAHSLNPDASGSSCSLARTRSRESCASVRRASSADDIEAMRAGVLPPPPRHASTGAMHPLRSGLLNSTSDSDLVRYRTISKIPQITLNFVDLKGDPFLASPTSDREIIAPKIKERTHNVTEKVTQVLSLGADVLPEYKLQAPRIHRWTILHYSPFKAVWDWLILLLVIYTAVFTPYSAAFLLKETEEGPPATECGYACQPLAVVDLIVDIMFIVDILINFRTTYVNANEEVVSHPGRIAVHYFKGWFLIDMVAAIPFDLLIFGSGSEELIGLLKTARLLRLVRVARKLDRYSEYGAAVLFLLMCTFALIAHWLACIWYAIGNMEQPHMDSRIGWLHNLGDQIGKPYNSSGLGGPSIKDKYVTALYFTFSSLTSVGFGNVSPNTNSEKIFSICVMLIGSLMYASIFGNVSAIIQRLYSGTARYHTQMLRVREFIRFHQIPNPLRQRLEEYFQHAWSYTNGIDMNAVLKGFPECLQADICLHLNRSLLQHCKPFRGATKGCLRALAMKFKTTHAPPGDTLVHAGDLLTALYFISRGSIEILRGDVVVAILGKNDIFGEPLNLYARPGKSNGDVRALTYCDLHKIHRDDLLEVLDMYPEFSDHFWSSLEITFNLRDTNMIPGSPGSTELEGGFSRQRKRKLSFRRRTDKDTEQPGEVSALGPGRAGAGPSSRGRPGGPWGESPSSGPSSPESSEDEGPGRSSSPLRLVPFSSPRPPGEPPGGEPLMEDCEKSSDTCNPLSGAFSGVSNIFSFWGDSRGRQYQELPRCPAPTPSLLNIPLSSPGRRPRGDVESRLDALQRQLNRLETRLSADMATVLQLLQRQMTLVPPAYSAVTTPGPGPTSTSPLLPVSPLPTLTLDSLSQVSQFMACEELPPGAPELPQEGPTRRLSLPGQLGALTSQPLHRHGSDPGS
test_protocol: Inhibition of human ERG potassium channel expressed in CHO cells by automated patch clamp electrophysiological assay
parameter_measured: pIC50
The meaning of pIC50 here: minus log10 of the concentration in molar units.

For the compound Cn1c(Cn2ccc(C(F)(F)F)c(Oc3cc(Cl)cc(C#N)c3)c2=O)n[nH]c1=O [DORAVIRINE] , what pIC50 is on record?
4.06

* * *

test_protocol: AUC (0 to infinity) in Sprague-Dawley rat at 1 mg/kg,iv
Type: ADME, organism-based
Set-up: time infinity, dose 1 mg/kg, route iv
condition_summary: in vivo
parameter_measured: AUC(0-inf) (ng·h/mL)
Unit ng·h/mL implied. Number only.

So what's the measured AUC(0-inf) for this one? `Cc1cccc(-c2cc(C#N)cc(Oc3c(C(F)(F)F)ccn(Cc4n[nH]c(=O)n4C)c3=O)c2)c1`
940

* * *

tested_on: Human immunodeficiency virus type 1 reverse transcriptase (Human immunodeficiency virus 1, UniProt Q72547)
pIC50: −log10 of the molar value.
Tag: 1 if measured pIC50 is not below 5, 0 if it is.

Consider the following illustrative entries.
compound_structure=Cc1cc(Oc2c(C(F)(F)F)ccn(Cc3n[nH]c(=O)n3C)c2=O)ccc1-c1cc(F)cc(C#N)c1 answer_label=1
compound_structure=Cc1cc(Oc2c(C(F)(F)F)ccn(Cc3n[nH]c(=O)n3C)c2=O)ccc1-c1cccc(F)c1 answer_label=1
compound_structure=Cn1c(Cn2ccc(C(F)(F)F)c(Oc3c(F)cc(-c4cccc(F)c4)cc3F)c2=O)n[nH]c1=O answer_label=0

Let's switch to this compound now.
# check: pIC50 of `Cc1cccc(-c2ccc(Oc3c(C(F)(F)F)ccn(Cc4n[nH]c(=O)n4C)c3=O)cc2F)c1` is greater than or equal to 5
0

* * *

tested_on: Cytochrome P450 2C9 (Homo sapiens, UniProt P11712)
Sequence (P11712 whole entry): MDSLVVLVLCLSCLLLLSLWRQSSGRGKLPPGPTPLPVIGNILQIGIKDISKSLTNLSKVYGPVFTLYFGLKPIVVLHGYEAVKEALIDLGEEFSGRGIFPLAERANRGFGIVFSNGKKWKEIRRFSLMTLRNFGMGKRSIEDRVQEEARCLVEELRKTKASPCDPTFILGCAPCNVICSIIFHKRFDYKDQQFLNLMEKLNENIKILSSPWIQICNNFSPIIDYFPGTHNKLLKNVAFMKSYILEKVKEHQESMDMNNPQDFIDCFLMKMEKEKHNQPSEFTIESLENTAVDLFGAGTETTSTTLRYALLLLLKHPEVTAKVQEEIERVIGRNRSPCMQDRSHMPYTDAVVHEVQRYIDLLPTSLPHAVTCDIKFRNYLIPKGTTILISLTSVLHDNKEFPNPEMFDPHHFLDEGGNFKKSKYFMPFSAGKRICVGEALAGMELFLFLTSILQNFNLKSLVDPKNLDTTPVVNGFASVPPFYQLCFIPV
parameter_measured: IC50 (µM)
Write it as a number; the unit µM goes unstated.

Please give the measured IC50 for this molecule: `Cc1cccc(-c2cc(C#N)cc(Oc3c(C(F)(F)F)ccn(Cc4n[nH]c(=O)n4C)c3=O)c2)c1`
38.3

* * *

test_protocol: Cytotoxicity against human MT4 cells assessed as reduction on cell growth by MTT assay
Type: toxicity, cell-based
Decision: CC50 beneath 30 µM gives Satisfied; CC50 meeting or exceeding 30 µM gives Not satisfied.

compound_structure=Cn1c(Cn2ccc(C(F)(F)F)c(Oc3ccc(-c4cccc(C#N)c4)cc3)c2=O)n[nH]c1=O answer_label="Not satisfied"
compound_structure=Cn1c(Cn2ccc(C(F)(F)F)c(Oc3c(F)cc(-c4ccc(F)cc4)cc3F)c2=O)n[nH]c1=O answer_label=Satisfied
compound_structure=Cn1c(Cn2ccc(C(F)(F)F)c(Oc3ccc(-c4ccc(F)c(C#N)c4)cc3Cl)c2=O)n[nH]c1=O answer_label=Satisfied
compound_structure=Cn1c(Cn2ccc(C(F)(F)F)c(Oc3cc(C#N)cc(-c4ccc(F)cc4)c3)c2=O)n[nH]c1=O answer_label="Not satisfied"
compound_structure=Cc1cc(Oc2c(C(F)(F)F)ccn(Cc3n[nH]c(=O)n3C)c2=O)ccc1-c1cccc(F)c1 answer_label="Not satisfied"

Is the reported CC50 for `Cn1c(Cn2ccc(C(F)(F)F)c(Oc3cc(C#N)cc(-c4cc(F)cc(C#N)c4)c3)c2=O)n[nH]c1=O` strictly below 30 µM?
Not satisfied

Cool, now `Cc1ccc(-c2ccc(Oc3c(C(F)(F)F)ccn(Cc4n[nH]c(=O)n4C)c3=O)cc2)cc1`
Satisfied

Another compound to look at: `Cn1c(Cn2ccc(C(F)(F)F)c(Oc3ccc(-c4cc(F)cc(C#N)c4)cc3Cl)c2=O)n[nH]c1=O`
Satisfied

Input `Cc1cc(-c2ccc(C#N)cc2)ccc1Oc1c(C(F)(F)F)ccn(Cc2n[nH]c(=O)n2C)c1=O`
Not satisfied

Input `Cn1c(Cn2ccc(C(F)(F)F)c(Oc3c(F)cc(-c4ccc(F)c(C#N)c4)cc3F)c2=O)n[nH]c1=O`
Satisfied

Now the compound `Cn1c(Cn2ccc(C(F)(F)F)c(Oc3cc(C#N)cc(-c4cccc(C#N)c4)c3)c2=O)n[nH]c1=O`
Not satisfied

What about this compound? `COc1cc(-c2cc(F)cc(C#N)c2)ccc1Oc1c(C(F)(F)F)ccn(Cc2n[nH]c(=O)n2C)c1=O`
Not satisfied

Try this compound too: `Cn1c(Cn2ccc(C(F)(F)F)c(Oc3ccc(-c4cc(F)cc(C#N)c4)cc3F)c2=O)n[nH]c1=O`
Not satisfied

`Cn1c(Cn2ccc(C(F)(F)F)c(Oc3ccc(-c4ccc(F)c(C#N)c4)cc3F)c2=O)n[nH]c1=O` , same question.
Not satisfied

Same for `Cn1c(Cn2ccc(C(F)(F)F)c(Oc3ccc(-c4ccc(F)cc4)cc3F)c2=O)n[nH]c1=O`
Satisfied

Query `Cc1ccccc1-c1ccc(Oc2c(C(F)(F)F)ccn(Cc3n[nH]c(=O)n3C)c2=O)cc1F` next
Not satisfied

Item: `Cn1c(Cn2ccc(C(F)(F)F)c(Oc3ccc(-c4cccc(C#N)c4)c(F)c3)c2=O)n[nH]c1=O`
Not satisfied
